test: Antioxidant activity assessed as inhibition of superoxide anion generation measured for 3 mins by nitro blue tetrazolium assay; assay type: physicochemical; settings: 0.05 h
assay_endpoint: Emax (%)
Give just the number in %; leave the unit off.

Answered examples (4):
C=CCN1C(=O)/C(=C2/C(=O)Nc3ccccc32)S/C1=N\c1nccs1 ... 86.5
CN(C1=NC(=O)/C(=C/C(Cl)=C/c2ccc([N+](=O)[O-])cc2)S1)c1ccc(O)cc1 ... 47.4
COc1ccc(/C=C2\SC(Nc3nnc(SCC(=O)Nc4ccc(Cl)cc4)s3)=NC2=O)cc1 ... 86.4
CN(C1=NC(=O)/C(=C2/C(=O)Nc3ccccc32)S1)c1ccc(O)cc1 ... 71.7

Now for a further molecule.
Returns the measured Emax for the input molecule. Input: `CCOc1cc(/C=C2\SC(Nc3nc4ccc(C)cc4s3)=NC2=O)ccc1O`
38.7
